Hi there, I'd appreciate the recorded T/C for every entry that follows.
# Tested on: BDF1 mice, B16 melanoma ip, median survival T/C
# experiment notes: NCI In Vivo Anticancer Drug Screen. Data for tumor model B16 Melanoma (intraperitoneal) in B6D2F1 (BDF1) mice
# test context: endpoint: median survival time; dose: 3.0 mg/kg/injection; schedule: Q01DX009 (ip); vehicle: saline with Tween-80; higher = longer survival
Toxic doses and inconclusive results are not listed.

Input line: Recorded T/C for O=C(NC(=O)C(Cl)Cl)OC1c2cc(Cl)ccc2-c2c(Cl)cc(Cl)cc21 (stereo unspecified) , please?
Output line: 93 % of control

Input line: Ok, now CC(C)C(=O)[O][Sn]([c]1ccccc1)([c]1ccccc1)[c]1ccccc1
Output line: 108 % of control

Input line: Ok, now CC[N+](CC)(CC)CC
Output line: 120 % of control

Input line: Ok, now COc1cc(C[C@H]2c3cc(OC)c(OC)cc3CCN2C)c(Oc2cc3c(cc2OC)-c2c(OC)c(OC)cc4c2[C@H](C3)N(C)CC4)cc1OC
Output line: 93 % of control

Input line: Ok, now O=S(=O)(O)SCCNCCCCCC1CCCCC1
Output line: 93 % of control

Input line: Ok, now Cc1cc(C)[c]([Hg][Cl])c(C)c1
Output line: 98 % of control

---

# Tested on: BDF1 mice, B16 melanoma ip, median survival T/C
# experiment notes: NCI In Vivo Anticancer Drug Screen. Data for tumor model B16 Melanoma (intraperitoneal) in B6D2F1 (BDF1) mice
# test context: endpoint: median survival time; dose: 6.25 mg/kg/injection; schedule: Q01DX009 (ip); vehicle: Klucel (hydroxypropylcellulose) (HPC); higher = longer survival
Toxic doses and inconclusive results are not listed.
parameter: T/C

Input line: Recorded T/C for CCc1c2cc3c(cc2cc2c4cc5c(cc4cc[n+]12)OCO5)OCO3 (tested in a mixture with another compound) , please?
Output line: 106 % of control

Input line: Ok, now CCCCCCC(C)NCC(O)COc1cccc(C)c1 (configuration not stated)
Output line: 94 % of control

Input line: Ok, now CCOC(=O)c1ccc(NC(=O)Nc2nccs2)cc1
Output line: 102 % of control

Input line: Ok, now O=c1[nH]c2ccccc2n1C1CCN(CCCC(c2ccc(F)cc2)c2ccc(F)cc2)CC1
Output line: 100 % of control

Input line: Ok, now CC(=O)[O][Pb]([O]C(C)=O)([c]1ccccc1)[c]1ccccc1
Output line: 98 % of control

Input line: Ok, now FC(F)(F)c1ccc2nc(CI)c(CI)nc2c1
Output line: 110 % of control

Input line: Ok, now COC(=O)C1C2CC3c4[nH]c5cc(OC)ccc5c4CCN3CC2CC(OC(=O)c2cc(OC)c(OC)c(OC)c2)C1OC (configuration not stated)
Output line: 105 % of control

Input line: Ok, now COc1cc2cc[n+](C)c(Cc3ccccc3)c2cc1OC
Output line: 102 % of control

Input line: Ok, now Cc1ccc(NCC2(/N=C/c3ccccc3)OC(CO)C(O)C2O)cc1 (configuration not stated)
Output line: 98 % of control

Input line: Ok, now CN(N)P(=S)(c1ccccc1)N(C)N
Output line: 106 % of control

Input line: Ok, now O[C@H](c1cc(C(F)(F)F)nc2c(C(F)(F)F)cccc12)[C@@H]1CCCCN1
Output line: 90 % of control

Input line: Ok, now O=C1c2ccccc2C(=O)N1CCC[P+](c1ccccc1)(c1ccccc1)c1ccccc1
Output line: 96 % of control

Input line: Ok, now CCN(Cc1ccc(Cl)c(Cl)c1)c1ccc2nc(N)nc(N)c2c1C
Output line: 94 % of control

Input line: Ok, now CNCc1ccccc1C(O)c1ccc(Cl)cc1 (configuration not stated)
Output line: 102 % of control

Input line: Ok, now CC[C@@H](C(=O)[C@@H](C)[C@@H](O)[C@H](C)CCc1ccc(C)c(O)c1C(=O)O)[C@H]1O[C@](CC)([C@H]2CC[C@](O)(CC)[C@H](C)O2)C[C@@H]1C
Output line: 111 % of control

Input line: Ok, now [Cl][Pt+2][Cl].[NH-]C1CCCCC1.[NH-]C1CCCCC1
Output line: 105 % of control

Input line: Ok, now CC(C)=CCC/C(C)=C/CNCCc1c[nH]c2ccccc12
Output line: 107 % of control

Input line: Ok, now COc1cc(C(=O)O)c2c(c1C)OC(=O)c1c(C)cc(O)c(C=O)c1O2
Output line: 111 % of control

Input line: Ok, now C[n+]1ccc2cc(N)c3c4ccccc4sc3c2c1
Output line: 101 % of control

Input line: Ok, now COc1cc2c[n+](C)c3c4cc5c(cc4ccc3c2cc1OC)OCO5 (tested in a mixture with another compound)
Output line: 110 % of control

Input line: Ok, now C[N+](C)(C)c1cc2c(nn1)Nc1ccccc1S2
Output line: 98 % of control

Input line: Ok, now Cc1cc(CCl)c(C)c(Br)c1C
Output line: 97 % of control

---

Hi there, I'd appreciate the recorded T/C for every entry that follows.
# Tested on: BDF1 mice, B16 melanoma ip, median survival T/C
# experiment notes: NCI In Vivo Anticancer Drug Screen. Data for tumor model B16 Melanoma (intraperitoneal) in B6D2F1 (BDF1) mice
# test context: endpoint: median survival time; dose: 6.25 mg/kg/injection; schedule: Q01DX009 (ip); vehicle: other; higher = longer survival
Inconclusive results and toxic doses are left out.

Input line: Recorded T/C for COc1ccc(CN(CCOC(=O)c2ccc(OC)cc2)CCN(CCOC(=O)c2ccc(OC)cc2)Cc2ccc(OC)cc2)cc1 , please?
Output line: 89 % of control

Input line: Ok, now CC(=O)[O][Sn]([CH2]c1ccccc1)([CH2]c1ccccc1)[CH2]c1ccccc1
Output line: 111 % of control

Input line: Ok, now CCC[CH2][Sn](=[S])[CH2]CCC
Output line: 97 % of control

Input line: Ok, now Cc1ccc(S(=O)(=O)N/N=C/c2ccccc2Cl)cc1
Output line: 96 % of control

---

# System: BDF1 mice, B16 melanoma ip, median survival T/C
# experiment notes: NCI In Vivo Anticancer Drug Screen. Data for tumor model B16 Melanoma (intraperitoneal) in B6D2F1 (BDF1) mice
# test context: endpoint: median survival time; dose: 50.0 mg/kg/injection; schedule: Q01DX009 (ip); vehicle: Klucel (hydroxypropylcellulose) (HPC)
Toxic doses and inconclusive results are not listed. Rule for the calls: active = survival T/C of 150% or more; inactive = T/C below 125% in these data.
Result category, one only: true (1) (active), false (0) (inactive)

Input line: Per the assay record, what outcome was assigned to COc1ccccc1OCC(O)COC(N)=O (configuration not stated) ?
Output line: false (0)

Input line: Ok, now COc1ccccc1N1C(=O)CSC1=S
Output line: false (0)

Input line: Ok, now C1CC[N-]CC1.CC(=N\O)/C(C)=N/O.CC(=N\O)/C(C)=N/O.[CH2-]C.[Co+2]
Output line: false (0)

Input line: Ok, now C#CC(C)(O)c1ccccc1 (configuration not stated)
Output line: false (0)

Input line: Ok, now CCN(CC)c1ccc(C=Nc2cccc(C(F)(F)F)c2)cc1
Output line: false (0)

Input line: Ok, now NC(=O)N1c2ccccc2C=Cc2ccccc21
Output line: false (0)

Input line: Ok, now CCCCCCCCCCCCCCCC(=O)N(CCCN)C(C)CCCN(CC)CC (configuration not stated)
Output line: false (0)

Input line: Ok, now Cc1ccc(NC(=S)NC(Cc2ccccc2)c2ccccc2)c(C)c1 (configuration not stated)
Output line: false (0)

Input line: Ok, now Cn1c(=O)c2[nH]c(Cc3ccsc3)nc2n(C)c1=O
Output line: false (0)

Input line: Ok, now CC(=O)[C@H]1CC[C@H]2[C@@H]3C[C@H](F)C4=CC(=O)CC[C@]4(C)[C@@]3(F)[C@@H](O)C[C@]12C
Output line: false (0)

Input line: Ok, now Nc1nc(N)c2cc(CNc3ccc(C(=O)NC(CC(=O)O)CC(=O)O)cc3)ccc2n1
Output line: false (0)

Input line: Ok, now N#CCCCc1ccccc1
Output line: false (0)

Input line: Ok, now Cc1cc(CCl)c(C)c(Br)c1C
Output line: false (0)

Input line: Ok, now Cc1ccc(S(=O)(=O)N=N/C=C2/C=CC=CN2O)cc1
Output line: false (0)

Input line: Ok, now CCCCNC(=O)OCC(C)(CCC)COC(N)=O (configuration not stated)
Output line: false (0)

Input line: Ok, now c1ccc(-c2cnoc2-c2ccccc2)cc1
Output line: false (0)

Input line: Ok, now CCCC1OC(=O)C(C)O1 (configuration not stated)
Output line: false (0)

Input line: Ok, now Cc1ccc(NC(=O)Nc2ccccc2Cl)cc1Cl
Output line: false (0)

Input line: Ok, now Nc1ccccc1N
Output line: false (0)

Input line: Ok, now Cc1ccc(S(=O)(=O)N/N=C/C(Br)=C(/Br)C(=O)O)cc1
Output line: false (0)

Input line: Ok, now COc1ccc(NC(=O)Nc2cc(Cl)ccc2OC)cc1
Output line: false (0)

Input line: Ok, now CCCCCCCCCCCCCCCCS(=O)(=O)c1ccc(NN)cc1
Output line: false (0)

Input line: Ok, now [Cl][Ge]([Cl])([c]1ccccc1)[c]1ccccc1
Output line: false (0)

Input line: Ok, now Cc1ccc(S(=O)(=O)N2CCn3ncc(C#N)c32)cc1
Output line: false (0)

Input line: Ok, now Clc1ccc2sc3c(c2c1)CCNC3
Output line: false (0)

Input line: Ok, now NC(CCCC(=O)O)P(=O)(O)O (configuration not stated)
Output line: false (0)

Input line: Ok, now COc1ccc2nc3cc(Cl)ccc3c(NCCNCCNCCNc3c4ccc(Cl)cc4nc4ccc(OC)cc34)c2c1
Output line: false (0)

Input line: Ok, now O=C1CC2(C(=O)N1CN1CCCCC1)c1ccccc1-c1ccccc12
Output line: false (0)

Input line: Ok, now C=C(C)C(=O)OCC1CO1 (configuration not stated)
Output line: false (0)

Input line: Ok, now COC(=O)C1C2CC3c4[nH]c5cc(OC)ccc5c4CCN3CC2CC(OC(=O)c2cc(OC)c(OC)c(OC)c2)C1OC (configuration not stated)
Output line: false (0)

Input line: Ok, now Oc1ccc(/C=N\Nc2ccccn2)c(O)c1
Output line: false (0)

Input line: Ok, now COc1cc2c[n+](C)c3c4cc5c(cc4ccc3c2cc1OC)OCO5 (tested in a mixture with another compound)
Output line: false (0)

Input line: Ok, now Cc1ccc(Nc2nnc(N=Nc3ccccc3)s2)cc1C
Output line: false (0)

Input line: Ok, now CCCCCCCCC(=O)NCCOC
Output line: false (0)

Input line: Ok, now CCC1=C(c2cc(Cl)c3ccccc3c2OCC(=O)O)OC(CC)(C(=O)c2cc(Cl)c3ccccc3c2OCC(=O)O)CC1 (configuration not stated)
Output line: false (0)

Input line: Ok, now COC(=O)c1ccc(-c2ccccc2)cc1
Output line: false (0)

Input line: Ok, now CCc1ccccc1N1CCN(C(=O)c2cc(OC)c(OC)c(OC)c2)CC1
Output line: false (0)

Input line: Ok, now O=S1(=O)CC(Cl)(Br)C1 (tested in a mixture with another compound)
Output line: false (0)

Input line: Ok, now O=C(O)c1ccc2c([N+](=O)[O-])cccc2n1
Output line: false (0)

Input line: Ok, now O=C(O)C(Cc1cc(I)c(O)c(I)c1)c1ccccc1 (configuration not stated)
Output line: false (0)

Input line: Ok, now O=C(NC(CSC(=O)OCc1ccccc1)C(=O)Oc1ccc([N+](=O)[O-])cc1)OCc1ccccc1 (configuration not stated)
Output line: false (0)

Input line: Ok, now Cc1ccc(NC(=O)Nc2ccc(Cl)c(Cl)c2)c(C)c1
Output line: false (0)

Input line: Ok, now O=C(CCN1CCCCCCC1)c1cccc([N+](=O)[O-])c1
Output line: false (0)

Input line: Ok, now Cc1ccc(NC(=O)Nc2cccc(Cl)c2C)cc1C
Output line: false (0)

Input line: Ok, now Cn1c2nc3ccccc3c-2nc2ccccc21
Output line: false (0)

Input line: Ok, now COc1ccc2[nH]c3ccc4cc[n+](CCN5CCC(C6CCN(CC[n+]7ccc8ccc9[nH]c%10ccc(OC)cc%10c9c8c7)CC6)CC5)cc4c3c2c1
Output line: true (1)

Input line: Ok, now CC(=O)OC1c2ccccc2C(=O)C1(OC(C)=O)c1ccccc1 (configuration not stated)
Output line: false (0)

Every entry's value here was drawn from PubChem BioAssay AID192.
